- Test system: OVCAR-4
- procedureSummary: Cytotoxicity against human OVCAR4 cells assessed as growth inhibition at 10 uM after 48 hrs by coulter counter analysis
- Type: functional
- assayConditions: OVCAR-4, 48 h, read-out: GI
Readings of inhibition of growth at 10 µM for the listed molecules
# number only, unit % dropped from output

Task: Reported inhibition of growth at 10 µM for `O=C(CSc1nc2ccccc2c(=O)n1CCc1ccccc1)Oc1ccc(Cl)cc1` : what is it?
Output: 59

Task: Let us now turn to `O=C(CSc1nc2ccccc2c(=O)n1CCc1ccccc1)Oc1ccccc1`
Output: 59

Task: And then `COc1cc(NC(=O)CCSc2nc3ccccc3c(=O)n2CCc2ccccc2)cc(OC)c1OC` , what is it?
Output: 51
